The measured values listed here are drawn from patent US7625887B2.

Target: rat TGR5 (Rattus norvegicus, UniProt Q80T02)
Construct: expressed in transfected cells; host or cells: CHO cells
Sequence (Q80T02 1-329): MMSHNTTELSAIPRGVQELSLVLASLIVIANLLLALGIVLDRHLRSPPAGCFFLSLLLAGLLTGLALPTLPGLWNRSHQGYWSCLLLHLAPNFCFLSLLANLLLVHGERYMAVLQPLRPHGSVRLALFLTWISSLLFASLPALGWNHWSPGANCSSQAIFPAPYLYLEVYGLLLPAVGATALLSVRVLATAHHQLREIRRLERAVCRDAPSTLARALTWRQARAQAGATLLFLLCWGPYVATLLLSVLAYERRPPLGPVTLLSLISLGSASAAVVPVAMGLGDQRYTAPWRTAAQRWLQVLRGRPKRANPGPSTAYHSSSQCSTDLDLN
Test: cAMP production increasing activity in rat type TGR5 expressing CHO cells
Type: cell-based
Settings: 0.5 h, read-out: cAMP producing activity (control %)
Reported activation at 2 µM values are given for each entry in this list.

[
  {
    "COMPOUND": "CC(=O)NCc1cccc(C2OC(CC(=O)NCC3CCCCCC3)C(=O)N(CC(C)(C)C)c3ccc(Cl)cc32)c1 (stereo not drawn)",
    "activation at 2 µM, %": 107
  },
  {
    "COMPOUND": "CC(C)(C)CN1C(=O)C(CC(=O)NCc2ccccc2F)N(Cc2ccncc2)Cc2ccccc21 (stereo not drawn) [Example 30B]",
    "activation at 2 µM, %": 108
  },
  {
    "COMPOUND": "CC(=O)NCc1cccc(C2OC(CC(=O)NCc3ccccc3F)C(=O)N(CC(C)(C)C)c3ccc(Cl)cc32)c1 (single isomer, unassigned; (+)) [Reference Example 33]",
    "activation at 2 µM, %": 92
  },
  {
    "COMPOUND": "Fc1ccc(-c2ccnc3c2CN(Cc2cc(C(F)(F)F)cc(C(F)(F)F)c2)CCCCO3)cc1 [Example 61C]",
    "activation at 2 µM, %": 101
  },
  {
    "COMPOUND": "FC(F)(F)c1cc(CN2CCOc3nccc(-c4ccccc4)c3C2)cc(C(F)(F)F)c1",
    "activation at 2 µM, %": 112
  },
  {
    "COMPOUND": "COC(=O)NCc1cccc(C2OC(CC(=O)NCc3ccccc3F)C(=O)N(CC(C)(C)COC(C)=O)c3ccc(Cl)cc32)c1 (stereo not drawn)",
    "activation at 2 µM, %": 104
  },
  {
    "COMPOUND": "O=S(=O)(c1cc(C(F)(F)F)cc(C(F)(F)F)c1)N1CCCOc2nccc(-c3ccccc3)c2C1 [Example 23C]",
    "activation at 2 µM, %": 148
  },
  {
    "COMPOUND": "COC(=O)NCc1cccc(C2OC(CC(=O)NCC3CCCCC3)C(=O)N(CC(C)(C)C)c3ccc(Cl)cc32)c1 (stereo not drawn)",
    "activation at 2 µM, %": 114
  },
  {
    "COMPOUND": "CC(c1cc(C(F)(F)F)cc(C(F)(F)F)c1)N1CCOc2nccc(-c3ccccc3)c2C1.Cl (stereo not drawn) [Example 33C, hydrochloride]",
    "activation at 2 µM, %": 149
  }
]
